Target: UniProtKB P05771
Sequence (P05771 whole entry): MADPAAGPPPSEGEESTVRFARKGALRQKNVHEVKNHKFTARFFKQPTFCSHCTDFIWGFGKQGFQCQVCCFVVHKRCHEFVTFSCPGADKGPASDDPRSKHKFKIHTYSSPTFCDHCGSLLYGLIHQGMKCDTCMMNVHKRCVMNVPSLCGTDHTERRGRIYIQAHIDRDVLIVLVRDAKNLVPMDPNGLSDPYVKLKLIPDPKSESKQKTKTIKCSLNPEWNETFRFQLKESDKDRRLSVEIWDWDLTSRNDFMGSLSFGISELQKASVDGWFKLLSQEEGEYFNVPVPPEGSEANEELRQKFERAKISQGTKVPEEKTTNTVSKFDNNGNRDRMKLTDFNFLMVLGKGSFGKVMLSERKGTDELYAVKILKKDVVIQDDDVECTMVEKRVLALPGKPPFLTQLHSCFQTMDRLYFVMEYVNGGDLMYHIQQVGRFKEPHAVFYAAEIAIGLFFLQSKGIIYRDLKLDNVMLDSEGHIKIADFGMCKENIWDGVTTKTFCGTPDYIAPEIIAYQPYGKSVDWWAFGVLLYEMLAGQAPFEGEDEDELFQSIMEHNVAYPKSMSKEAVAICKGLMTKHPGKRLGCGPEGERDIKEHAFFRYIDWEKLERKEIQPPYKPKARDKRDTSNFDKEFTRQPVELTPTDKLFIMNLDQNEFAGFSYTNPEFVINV
Assay: Inhibition of Protein kinase C beta 2
OBSERVATION TYPE: IC50 (nM)

Some solved cases for reference:
COMPOUND: O=C(N[C@@H]1CCC[C@H]1OCc1cc(O)c(C(=O)c2c(O)cccc2C(=O)O)c(O)c1)c1ccc(O)cc1
TARGET DESC: UniProtKB P05771
NUMERIC VALUE: 290
//
COMPOUND: O=C(N[C@@H]1CCCNC[C@H]1NC(=O)c1ccc(O)cc1)c1cc(O)c(C(=O)c2c(O)cccc2C(=O)O)c(O)c1
TARGET DESC: UniProtKB P05771
NUMERIC VALUE: 1200
//
COMPOUND: O=C(N[C@@H]1CCC[C@H]1COC(=O)c1cc(O)c(C(=O)c2c(O)cccc2C(=O)O)c(O)c1)c1ccc(O)cc1
TARGET DESC: UniProtKB P05771
NUMERIC VALUE: 30

P = O=C(N[C@@H]1CNCCC[C@H]1OC(=O)c1cc(O)c(C(=O)c2c(O)cccc2C(=O)O)c(O)c1)c1ccc(O)cc1 [BALANOL]
Q = C[C@@]1(OC(=O)c2cc(O)c(C(=O)c3c(O)cccc3C(=O)O)c(O)c2)CCCNC[C@H]1NC(=O)c1ccc(O)cc1
R = O=C(N[C@@H]1CNCCC[C@H]1OC(=O)c1cc(O)c(C(=O)c2c(O)cccc2C(=O)O)c(O)c1)c1ccc(O)cc1 (racemic) [BALANOL]
S = O=C(NC[C@@H]1CCC[C@H]1NC(=O)c1ccc(O)cc1)c1cc(O)c(C(=O)c2c(O)cccc2C(=O)O)c(O)c1
T = O=C(N[C@@H]1CNC[C@H]1NC(=O)c1cc(O)c(C(=O)c2c(O)cccc2C(=O)O)c(O)c1)c1ccc(O)cc1
In: Task field, ranking: reported IC50, descending order. // list labels; follow requested order
Out: S, T, Q, R, P
